- test_protocol: AUC (0 to t) in fasted BALB/c mouse at 20 mg/kg, iv administered upto 600 mins by HPLC-MS/MS analysis
- Type: ADME, organism-based
- Design: dose 20 mg/kg, time < 600 min, route iv
- measurement_setup: in vivo
Reported AUC(0-t) at 10 h by item:
Give the quantity in ng·h/mL, number only.

INSERT INTO assay_data (compound, numeric_readout) VALUES
  ('CC(C)N(C[C@H]1C[C@@H](c2ccc3c(N)ncnn23)[C@H](O)[C@@H]1O)[C@H]1C[C@@H](CCc2nc3cc(C(C)(C)C)ccc3[nH]2)C1', 34700),
  ('CC(C)NC[C@H]1C[C@@H](c2ccc3c(N)ncnn23)[C@H](O)[C@@H]1O', 14200),
  ('CN(CCCNC(=O)Nc1ccc(C(C)(C)C)cc1)C[C@H]1C[C@@H](c2ccc3c(N)ncnn23)[C@H](O)[C@@H]1O (stereo in doubt; (-)-25)', 3020);

Here's the next entry for you.
### Prompt Entry "CC(C)NC[C@@H]1C[C@H](c2ccc3c(N)ncnn23)[C@@H](O)[C@H]1O" : reported AUC(0-t) at 10 h = ?
### Response 7170

These measurements were taken from ChEMBL document CHEMBL5154806.
